The values you see were collected from patent US20250011363A1.

Biological target: acetylcholine receptor
Test: SPR, AchR immobilized on CM5 chip, peptide 10 µM
test readout: Binding affinity (RU)

binder	Binding affinity (RU)
RSLSKR [6mer-2-245]	135
RSQSRR [6mer-2-210]	128
RRRRRK [6mer-2-238]	142
RVQSKR [6mer-2-259]	128
KSQLKR [6mer-2-264]	127
RWQSKK [6mer-2-229]	127
RLFLKR [6mer-2-224]	148
KSQTKR [6mer-2-251]	142
KWVSKR [6mer-2-207]	153
RLLCKR [6mer-2-226]	154
RRICKR [6mer-2-263]	145
RWQTKK [6mer-2-266]	131
KLYSRR [6mer-2-267]	141
